B1: Homeobox protein cut-like 1, residues 548 to 629; numbered along this chain, P39880 (parent)
chain: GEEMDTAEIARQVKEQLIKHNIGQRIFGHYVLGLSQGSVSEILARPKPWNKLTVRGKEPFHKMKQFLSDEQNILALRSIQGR

Variants of: B1
Assay: abundance fitness (aPCA) (normalised: wild type 0, dead -1); higher = more abundant; growth selection in yeast, the domain comes from the species named
Settings: Homo sapiens
Listed here are variants together with their documented abundance fitness.
Reply: number alone, nothing else.

Worked examples follow.
R55F    -0.041
Y30A    -0.082
I73S    0.005
L76Q    -0.6
K62E    -0.506
I18K    0.075
L32D    -0.773
S40G    -0.06
E15Y    -0.091
L17C    -0.493

Which abundance fitness value is on record for "K51L" ?
0.011

Note, next up: "P48D"
-0.267

Note, next up: "V39L"
-0.101

Note, next up: "F66M"
-0.648

Note, next up: "S40M"
-0.051

Note, next up: "S35K"
-0.035

Note, next up: "H20L"
-0.361

Note, next up: "R25V"
-0.088

Note, next up: "P46I"
-0.26

Note, next up: "Q65N"
0.022

Note, next up: "I42E"
-0.707

Note, next up: "G37E"
0.136

Note, next up: "A44Y"
-0.099

Note, next up: "R11V"
-0.311

Note, next up: "K64E"
-0.167

Where these numbers come from: the Human Domainome abundance scans (Beltran et al. 2025)
